Property: self-cleavage; scope: individual variants
B1: CPEB3 Ribozyme (parent)
chain: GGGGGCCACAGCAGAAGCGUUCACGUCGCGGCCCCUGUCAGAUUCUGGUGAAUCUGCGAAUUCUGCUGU

Variants of: B1
testProtocol: self-cleavage, relative activity (ratio to wild type); higher = more cleavage; co-transcriptional
reportedMetric: self-cleavage

# sequenceString, reportedMetric, valueMeasured
data = [
    ("GGGGGCCACAACAGAAGCGUUCACGUCGCGGCCCCUGUCCGAUUCUGGUGAAUCUGCGAAUUCUGCUGU [G11A A40C]", "self-cleavage", 0.14),
    ("GGGGGCCACAGCAGAAGCGUUCACGUCGCGGCCCCUGGCAGAUUCUGGCGAAUCUGCGAAUUCUGCUGU [U38G U49C]", "self-cleavage", 0.231),
    ("GGGGGCCACAGCAGAAACGUUCACGUCGCGGCCCCUGUCAGAUUCUGGUGAAUCUGCGAUUUCUGCUGU [G17A A60U]", "self-cleavage", 0.203),
    ("GGGGGCCACAGCAGAAUCGUUUACGUCGCGGCCCCUGUCAGAUUCUGGUGAAUCUGCGAAUUCUGCUGU [G17U C22U]", "self-cleavage", 0.169),
    ("GGGGGCCACAGCAGAAGCGUUCUCGUCGAGGCCCCUGUCAGAUUCUGGUGAAUCUGCGAAUUCUGCUGU [A23U C29A]", "self-cleavage", 0.8),
    ("GGGGGCCACAGCAGAAGCGUUCACGUCGCGGCCCCUGUCAGUUUCUGGUGAAUCUGCGACUUCUGCUGU [A42U A60C]", "self-cleavage", 0.219),
    ("GGGGGCCACAGCAGAAGCGUUCACGUCGCGGCCCCUGUCAGGUUCUGGUGAAGCUGCGAAUUCUGCUGU [A42G U53G]", "self-cleavage", 0.801),
    ("GGGGGCCACAGCAGAAGCGUUCACGUCGCGGCCCCUGUCAGAUUCUGGUGAAUCUGCUAAUUCUGCUGG [G58U U69G]", "self-cleavage", 1.03),
    ("GGGGGCCACAGCAGAAGUGUUCACGUCGCGGCCCCUGGCAGAUUCUGGUGAAUCUGCGAAUUCUGCUGU [C18U U38G]", "self-cleavage", 0.116),
    ("GGGGGCCACAGCAGAAGCGUUCACCUCGCGGCCCAUGUCAGAUUCUGGUGAAUCUGCGAAUUCUGCUGU [G25C C35A]", "self-cleavage", 0.141),
    ("GGGGGCCACAGCAGAUGCGUUCACGUCGCGGCCCCUGUCAGAUUCUGGUGAAUCUGGGAAUUCUGCUGU [A16U C57G]", "self-cleavage", 0.246),
    ("GGGGACCACAGCAGCAGCGUUCACGUCGCGGCCCCUGUCAGAUUCUGGUGAAUCUGCGAAUUCUGCUGU [G5A A15C]", "self-cleavage", 0.263),
    ("GGGGGCCACAGCAGAAGCGUUCACGUCGCAGUCCCUGUCAGAUUCUGGUGAAUCUGCGAAUUCUGCUGU [G30A C32U]", "self-cleavage", 0.714),
    ("GGGGGCCACAGCAGAAGCGUUCACGUCGCGGCGCCUGUCAGAUUCUGGUGAAUCUGCGAAUUCUACUGU [C33G G65A]", "self-cleavage", 0.511),
    ("GGGGGCCACAGCAGAAGCGAUCACGUCGCGGCCCCUGUCAGAUUCUGGUGAAUCUGCGAAUUGUGCUGU [U20A C63G]", "self-cleavage", 0.13),
    ("GGGGGCCACAGCAGACGCGUUCACGUCGCGGCCCCUGUCAGAUUCUGGUGAAUCUGCGAAUUUUGCUGU [A16C C63U]", "self-cleavage", 0.19),
    ("GGGAGCCACAGCAGAAGCGUUCACGUCGCGGCCCCUGUCAGAUUCUGGUGAAUCUGCGAAUUCUGAUGU [G4A C66A]", "self-cleavage", 0.743),
    ("GGGGGCCACAGCAGAAGCGUUCACGUCGCGGCCCCUGUCAGAUUCUGGUGAAUCUGAGAAUUUUGCUGU [C57A C63U]", "self-cleavage", 0.408),
    ("GGGGGCCACAGCAGAAGCGUUCACAUCGCGGGCCCUGUCAGAUUCUGGUGAAUCUGCGAAUUCUGCUGU [G25A C32G]", "self-cleavage", 0.131),
    ("GGGGGCCACAGCAGAAGCGUUCACGUCGCCGCCCCUGUUAGAUUCUGGUGAAUCUGCGAAUUCUGCUGU [G30C C39U]", "self-cleavage", 0.396),
    ("GGGGGCCACAGCAGAAGCGUUCACUUCGCGGCCCCUGUCAGAUUCUGGUGAAUCUGCCAAUUCUGCUGU [G25U G58C]", "self-cleavage", 0.107),
    ("GGGGGCCACAGCAGAAGCAUUCACGUCGCGGCCCCUGUCAGAUUCUGGUGAAUCUGCGGAUUCUGCUGU [G19A A59G]", "self-cleavage", 0.188),
]
